Tested on: Hepatotoxicity
Assay: FDA HLAED, gamma-glutamyl transferase (GGT) increase
Conditions: human
Please use yes (1) for GGT Increase - Index Value under 0.6 and no (0) for everything else, ties included.

- MOLECULE: "CCC(=O)Oc1ccc2c(c1)CC[C@@H]1[C@@H]2CC[C@]2(C)[C@@H](OC(=O)CC)CC[C@@H]12 [ESTRADIOL DIPROPIONATE]"
  CLASS_LABEL: "yes (1)"
- MOLECULE: "Nc1nc(Cl)nc2c1ncn2[C@H]1C[C@H](O)[C@@H](CO)O1"
  CLASS_LABEL: "no (0)"
- MOLECULE: "Cc1nccn1CC1CCc2c(c3ccccc3n2C)C1=O (stereo not drawn)"
  CLASS_LABEL: "yes (1)"
- MOLECULE: "CC1(C)O[C@@H]2[C@@H](CO[C@@]3(COS(N)(=O)=O)OC(C)(C)O[C@@H]23)O1 [TOPIRAMATE]"
  CLASS_LABEL: "yes (1)"
- MOLECULE: "CCOC(=O)[C@H](CCc1ccccc1)N[C@@H](C)C(=O)N1Cc2cc(OC)c(OC)cc2C[C@H]1C(=O)O"
  CLASS_LABEL: "yes (1)"
- MOLECULE: "CN1CC[C@]23c4c5ccc(O)c4O[C@H]2C(=O)CC[C@H]3[C@H]1C5 [HYDROMORPHONE]"
  CLASS_LABEL: "yes (1)"
- MOLECULE: "O=c1[nH]c2ccccc2n1C1CCN(CCCC(c2ccc(F)cc2)c2ccc(F)cc2)CC1 [PIMOZIDE]"
  CLASS_LABEL: "no (0)"

====

Test system: Hepatotoxicity
Experiment: FDA HLAED, gamma-glutamyl transferase (GGT) increase
Details: human

- MOLECULE: "Nc1ccc(O)c(C(=O)O)c1 [MESALAMINE]"
  GGT Increase - Index Value: 1.5
- MOLECULE: "CCn1cc(C(=O)O)c(=O)c2cc(F)c(N3CCNCC3)cc21 [NORFLOXACIN]"
  GGT Increase - Index Value: 0
- MOLECULE: "CCn1nc(C(=O)O)c(=O)c2cc3c(cc21)OCO3 [CINOXACIN]"
  GGT Increase - Index Value: 0
- MOLECULE: "NCC1(CC(=O)O)CCCCC1 [GABAPENTIN]"
  GGT Increase - Index Value: 0.7
- MOLECULE: "CNCCC(Oc1ccc(C(F)(F)F)cc1)c1ccccc1 (stereo not drawn) [FLUOXETINE]"
  GGT Increase - Index Value: 3.3
- MOLECULE: "CN[C@H]1CC[C@@H](c2ccc(Cl)c(Cl)c2)c2ccccc21 [SERTRALINE]"
  GGT Increase - Index Value: 2
- MOLECULE: "C=C1/C(=C\\C=C2/CCC[C@]3(C)[C@@H]([C@H](C)CCCC(C)(C)O)CC[C@@H]23)C[C@@H](O)C[C@@H]1O [CALCITRIOL]"
  GGT Increase - Index Value: 0
- MOLECULE: "O=c1[nH]c(=O)n([C@H]2C[C@H](O)[C@@H](CO)O2)cc1C(F)(F)F [TRIFLURIDINE]"
  GGT Increase - Index Value: 0
- MOLECULE: "O=C(O)C1=C(CSc2nnnn2CS(=O)(=O)O)CS[C@@H]2[C@H](NC(=O)[C@H](O)c3ccccc3)C(=O)N12 [CEFONICID]"
  GGT Increase - Index Value: 0
- MOLECULE: "COc1ccccc1OCCNCC(O)COc1cccc2[nH]c3ccccc3c12 (stereo not drawn) [CARVEDILOL]"
  GGT Increase - Index Value: 0
- MOLECULE: "C[C@]12CC[C@H]3[C@@H](CCC4=CC(=O)CC[C@@]43C)[C@@H]1CC[C@@H]2OC(=O)CCC1CCCC1 [TESTOSTERONE CYPIONATE]"
  GGT Increase - Index Value: 4.8
- MOLECULE: "CCc1c2c(nc3ccc(OC(=O)N4CCC(N5CCCCC5)CC4)cc13)-c1cc3c(c(=O)n1C2)COC(=O)[C@]3(O)CC [IRINOTECAN]"
  GGT Increase - Index Value: 2
- MOLECULE: "O=C(O)CCCCCCCC(=O)O [AZELAIC ACID]"
  GGT Increase - Index Value: 0
- MOLECULE: "Cc1ccccc1N1CCN(CCc2nnc3n2CCCC3)CC1 [DAPIPRAZOLE]"
  GGT Increase - Index Value: 0
- MOLECULE: "CCn1cc(C(=O)O)c(=O)c2cc(F)c(N3CCNCC3)nc21 [ENOXACIN]"
  GGT Increase - Index Value: 0
- MOLECULE: "O=C1CN(/N=C/c2ccc([N+](=O)[O-])o2)C(=O)N1 [NITROFURANTOIN]"
  GGT Increase - Index Value: 16.4
- MOLECULE: "COc1ccc([C@@H]2Sc3ccccc3N(CCN(C)C)C(=O)[C@@H]2OC(C)=O)cc1 [DILTIAZEM]"
  GGT Increase - Index Value: 0
- MOLECULE: "COc1cc(NCc2ccc3nc(N)nc(N)c3c2C)cc(OC)c1OC [TRIMETREXATE]"
  GGT Increase - Index Value: 0

====

System: Hepatotoxicity
Experiment: FDA HLAED, gamma-glutamyl transferase (GGT) increase
Conditions: human

- COMPOUND: "COc1cc2c(cc1OC)[C@@H](Cc1cc(OC)c(OC)c(OC)c1)[N+](C)(CCCOC(=O)CC/C=C/CCC(=O)OCCC[N+]1(C)CCc3cc(OC)c(OC)cc3[C@H]1Cc1cc(OC)c(OC)c(OC)c1)CC2.[Cl-].[Cl-] (stereo partly drawn) [MIVACURIUM CHLORIDE]"
  MEASUREMENT_TARGET: "Hepatotoxicity"
  GGT Increase - Activity Score: "Inactive"
- COMPOUND: "CC(C)(O/N=C(\\C(=O)N[C@@H]1C(=O)N2C(C(=O)[O-])=C(C[n+]3ccccc3)CS[C@H]12)c1csc(N)n1)C(=O)O [CEFTAZIDIME]"
  MEASUREMENT_TARGET: "Hepatotoxicity"
  GGT Increase - Activity Score: "Inactive"
- COMPOUND: "Clc1ccccc1CN1CCc2sccc2C1 [TICLOPIDINE]"
  MEASUREMENT_TARGET: "Hepatotoxicity"
  GGT Increase - Activity Score: "Inactive"

====

Tested on: Hepatotoxicity
Test: FDA HLAED, serum glutamic pyruvic transaminase (SGPT) increase
Details: human

- SAMPLE_SMILES: "CC[C@@]1(O)C(=O)OCc2c1cc1n(c2=O)Cc2cc3c(CN(C)C)c(O)ccc3nc2-1"
  MEASUREMENT_TARGET: "Hepatotoxicity"
  SGPT Increase - Number of Reports: "< 4"
- SAMPLE_SMILES: "CN(C)CCCN1c2ccccc2CCc2ccc(Cl)cc21"
  MEASUREMENT_TARGET: "Hepatotoxicity"
  SGPT Increase - Number of Reports: "< 4"
- SAMPLE_SMILES: "CC(C)c1c(C(=O)Nc2ccccc2)c(-c2ccccc2)c(-c2ccc(F)cc2)n1CC[C@@H](O)C[C@@H](O)CC(=O)O"
  MEASUREMENT_TARGET: "Hepatotoxicity"
  SGPT Increase - Number of Reports: ">= 4"
- SAMPLE_SMILES: "O=C1CN=C(c2ccccc2)c2cc(Cl)ccc2N1CC(F)(F)F"
  MEASUREMENT_TARGET: "Hepatotoxicity"
  SGPT Increase - Number of Reports: "< 4"

====

Tested on: Hepatotoxicity
Experiment: FDA HLAED, lactate dehydrogenase (LDH) increase
Details: human
RECORDED_METRIC: LDH Increase - Number of Reports

- MOLECULE: "CCCCCCCCCCC(=O)O[C@H]1CC[C@H]2[C@@H]3CCc4cc(O)ccc4[C@H]3CC[C@]12C [ESTRADIOL UNDECYLATE]"
  RESULT: ">= 4"
- MOLECULE: "Cc1cc(CC(=O)O)n(C)c1C(=O)c1ccc(Cl)cc1 [ZOMEPIRAC]"
  RESULT: ">= 4"
- MOLECULE: "CO/N=C(\\C(=O)N[C@@H]1C(=O)N2C(C(=O)OC(C)OC(C)=O)=C(COC(N)=O)CS[C@H]12)c1ccco1 (stereo partly drawn)"
  RESULT: "< 4"
- MOLECULE: "CC1Cc2ccccc2N1NC(=O)c1ccc(Cl)c(S(N)(=O)=O)c1 (stereo not drawn) [INDAPAMIDE]"
  RESULT: "< 4"
- MOLECULE: "CCCCCCCN(CC)CCCC(O)c1ccc(NS(C)(=O)=O)cc1 (stereo not drawn) [IBUTILIDE]"
  RESULT: "< 4"
- MOLECULE: "CN1CCN(C2=Nc3cc(Cl)ccc3Nc3ccccc32)CC1"
  RESULT: ">= 4"
- MOLECULE: "CCC1=C(C)CN(C(=O)NCCc2ccc(S(=O)(=O)NC(=O)N[C@H]3CC[C@H](C)CC3)cc2)C1=O [GLIMEPIRIDE]"
  RESULT: "< 4"
- MOLECULE: "C=C1CC[C@@]2(O)[C@H]3Cc4ccc(O)c5c4[C@@]2(CCN3CC2CC2)[C@H]1O5"
  RESULT: "< 4"
- MOLECULE: "COc1ccc(OC)c(C(O)CNC(=O)CN)c1 (stereo not drawn)"
  RESULT: "< 4"
- MOLECULE: "NCCCC[C@H](N[C@@H](CCc1ccccc1)C(=O)O)C(=O)N1CCC[C@H]1C(=O)O [LISINOPRIL ANHYDROUS]"
  RESULT: ">= 4"
- MOLECULE: "Cc1cccc(C)c1OCC(C)N (stereo not drawn)"
  RESULT: ">= 4"
- MOLECULE: "CO/N=C(\\C(=O)N[C@@H]1C(=O)N2C(C(=O)O)=C(CSc3nc(=O)c(=O)[nH]n3C)CS[C@H]12)c1csc(N)n1"
  RESULT: ">= 4"
- MOLECULE: "CCCc1c2oc(C(=O)O)cc(=O)c2cc2c(=O)cc(C(=O)O)n(CC)c12"
  RESULT: "< 4"
- MOLECULE: "CNCCC(Oc1ccc(C(F)(F)F)cc1)c1ccccc1 (stereo not drawn)"
  RESULT: ">= 4"
- MOLECULE: "C=CC[N+]1([C@H]2C[C@H]3[C@@H]4CC[C@H]5C[C@H](O)[C@@H](N6CCOCC6)C[C@]5(C)[C@H]4CC[C@]3(C)[C@H]2OC(C)=O)CCCC1.[Br-] [ROCURONIUM BROMIDE]"
  RESULT: "< 4"
- MOLECULE: "CCOC(=O)[C@H](CCc1ccccc1)N[C@H]1CCc2ccccc2N(CC(=O)O)C1=O"
  RESULT: "< 4"
- MOLECULE: "CC(=O)N(CC(O)CO)c1c(I)c(C(=O)NCC(O)CO)c(I)c(C(=O)NCC(O)CO)c1I (stereo not drawn) [IOHEXOL]"
  RESULT: "< 4"
- MOLECULE: "O=C(O)c1cn(C2CC2)c2cc(N3CCNCC3)c(F)cc2c1=O"
  RESULT: ">= 4"
- MOLECULE: "CCCCc1oc2ccccc2c1C(=O)c1cc(I)c(OCCN(CC)CC)c(I)c1"
  RESULT: "< 4"
- MOLECULE: "COc1ccc(C(CN(C)C)C2(O)CCCCC2)cc1 (stereo not drawn)"
  RESULT: ">= 4"
- MOLECULE: "C#CCN(C)[C@H](C)Cc1ccccc1"
  RESULT: "< 4"
- MOLECULE: "CC(CN(C)C)CN1c2ccccc2CCc2ccccc21 (stereo not drawn)"
  RESULT: "< 4"
- MOLECULE: "CC(=O)OCC(=O)[C@@]12OC3(CCCC3)O[C@@H]1C[C@H]1[C@@H]3CCC4=CC(=O)C=C[C@]4(C)[C@@]3(F)[C@@H](O)C[C@@]12C [AMCINONIDE]"
  RESULT: "< 4"
- MOLECULE: "CCCCNc1cc(C(=O)O)cc(S(N)(=O)=O)c1Oc1ccccc1 [BUMETANIDE]"
  RESULT: "< 4"
- MOLECULE: "CC[C@@H]1C(=O)OC[C@@H]1Cc1cncn1C"
  RESULT: "< 4"
- MOLECULE: "Nc1cc(N2CCCCC2)nc(N)[n+]1[O-]"
  RESULT: "< 4"
- MOLECULE: "CC(O)(CS(=O)(=O)c1ccc(F)cc1)C(=O)Nc1ccc(C#N)c(C(F)(F)F)c1 (stereo not drawn) [BICALUTAMIDE]"
  RESULT: "< 4"
- MOLECULE: "N=C(N)N/N=C/c1c(Cl)cccc1Cl"
  RESULT: "< 4"
- MOLECULE: "CC1(C)O[C@@H]2[C@@H](CO[C@@]3(COS(N)(=O)=O)OC(C)(C)O[C@@H]23)O1 [TOPIRAMATE]"
  RESULT: "< 4"
- MOLECULE: "CCc1nn(CCCN2CCN(c3cccc(Cl)c3)CC2)c(=O)n1CCOc1ccccc1"
  RESULT: ">= 4"
- MOLECULE: "CO/N=C(\\C(=O)N[C@@H]1C(=O)N2C(C(=O)[O-])=C(C[N+]3(C)CCCC3)CS[C@H]12)c1csc(N)n1"
  RESULT: "< 4"
- MOLECULE: "C[C@@H](O)[C@H]1C(=O)N2C(C(=O)O)=C(S[C@@H]3CN[C@H](C(=O)N(C)C)C3)[C@H](C)[C@H]12"
  RESULT: "< 4"
- MOLECULE: "CCC(=O)Oc1ccc2c(c1)CC[C@@H]1[C@@H]2CC[C@]2(C)[C@@H](OC(=O)CC)CC[C@@H]12 [ESTRADIOL DIPROPIONATE]"
  RESULT: ">= 4"
